Assay: Total clearance in C57BL/6 mouse at 0.2 mg/kg, iv
Format: ADME, organism-based
Conditions: in vivo
reportedEndpoint: clearance (mL/min/kg)

- substanceSmiles: "CCOc1nc2ccc(Oc3ccc(/C=C/[C@H](C)NC(C)=O)cn3)c(Cl)c2s1"
  reportedEndpoint: "clearance"
  valueUnit: "mL/min/kg"
  reportedResult: 0.354

====

Species: Homo sapiens
Assay: Selectivity ratio of IC50 for recombinant human ACC1 to IC50 for recombinant human ACC2
# Ratio IC50 listing for each entry below
reportedEndpoint: Ratio IC50

- substanceSmiles: "CC(=O)N[C@@H](C)/C=C/c1cnc(Oc2ccc(OCC3CC3)cc2Cl)n1C"
  reportedEndpoint: "Ratio IC50"
  qual: "="
  reportedResult: 82
- substanceSmiles: "CC(=O)N[C@@H](C)/C=C/c1ccc(Oc2ccc3nc(C(C)(C)O)sc3c2Cl)nc1"
  reportedEndpoint: "Ratio IC50"
  qual: "="
  reportedResult: 315
- substanceSmiles: "CCOc1ccc(Oc2ncc(/C=C/[C@H](C)NC(C)=O)s2)cc1"
  reportedEndpoint: "Ratio IC50"
  qual: ">"
  reportedResult: 1270
- substanceSmiles: "CCOc1ccc(Oc2ccc(/C=C/[C@H](C)NC(C)=O)cn2)c(Cl)c1"
  reportedEndpoint: "Ratio IC50"
  qual: ">"
  reportedResult: 2170
- substanceSmiles: "CC(=O)N[C@@H](C)/C=C/c1cnc(Oc2ccc(OC(C)C)cc2)s1"
  reportedEndpoint: "Ratio IC50"
  qual: "="
  reportedResult: 809
- substanceSmiles: "CC(=O)N[C@@H](C)/C=C/c1cnc(Oc2ccc(OCC3CC3)cc2Cl)s1"
  reportedEndpoint: "Ratio IC50"
  qual: "="
  reportedResult: 98
- substanceSmiles: "CC(=O)N[C@@H](C)/C=C/c1ccc(Oc2ccc3nc(C(C)C)sc3c2F)nc1"
  reportedEndpoint: "Ratio IC50"
  qual: "="
  reportedResult: 17
- substanceSmiles: "CC(=O)N[C@@H](C)/C=C/c1ccc(Oc2ccc3sc(C(C)C)nc3c2Cl)nc1"
  reportedEndpoint: "Ratio IC50"
  qual: "="
  reportedResult: 21
- substanceSmiles: "COC(=O)N[C@@H](C)/C=C/c1cnc(Oc2ccc(OC(C)C)cc2)s1"
  reportedEndpoint: "Ratio IC50"
  qual: ">"
  reportedResult: 1320
- substanceSmiles: "CC(=O)N[C@@H](C)/C=C/c1ccc(Oc2cc3sc(C)nc3cc2Cl)nc1"
  reportedEndpoint: "Ratio IC50"
  qual: "="
  reportedResult: 110
- substanceSmiles: "CC(=O)N[C@@H](C)/C=C/c1cnc(Oc2ccc(OCC3CC3)cc2Cl)nc1"
  reportedEndpoint: "Ratio IC50"
  qual: ">"
  reportedResult: 2080
- substanceSmiles: "CC(=O)N[C@@H](C)/C=C/c1ccc(Oc2ccc3nc(C)sc3c2Cl)nc1"
  reportedEndpoint: "Ratio IC50"
  qual: "="
  reportedResult: 469
- substanceSmiles: "CC(=O)N[C@@H](C)/C=C/c1cnc(Oc2ccc(OCC3CC3)cc2)s1"
  reportedEndpoint: "Ratio IC50"
  qual: "="
  reportedResult: 63
- substanceSmiles: "CC(=O)N[C@@H](C)/C=C/c1ccc(Oc2ccc(OCC3CC3)cc2Cl)nn1"
  reportedEndpoint: "Ratio IC50"
  qual: ">"
  reportedResult: 327
- substanceSmiles: "CCOc1nc2ccc(Oc3ccc(/C=C/[C@H](C)NC(C)=O)cn3)c(Cl)c2s1"
  reportedEndpoint: "Ratio IC50"
  qual: "="
  reportedResult: 1030
- substanceSmiles: "CC(=O)N[C@@H](C)/C=C/c1nnc(Oc2ccc(OCC3CC3)cc2Cl)s1"
  reportedEndpoint: "Ratio IC50"
  qual: ">"
  reportedResult: 395
- substanceSmiles: "CC(=O)N[C@@H](C)/C=C/c1ccc(Oc2ccc(OCC(F)F)cc2Cl)nc1"
  reportedEndpoint: "Ratio IC50"
  qual: ">"
  reportedResult: 1190
- substanceSmiles: "CC(=O)N[C@@H](C)/C=C/c1ccc(Oc2ccc3nc(C(C)C)sc3c2Cl)nc1"
  reportedEndpoint: "Ratio IC50"
  qual: "="
  reportedResult: 70
- substanceSmiles: "CC(=O)N[C@@H](C)/C=C/c1cnc(Oc2ccc(OCC3CC3)cc2Cl)cn1"
  reportedEndpoint: "Ratio IC50"
  qual: "="
  reportedResult: 30
- substanceSmiles: "CC(=O)N[C@@H](C)/C=C/c1ccc(Oc2ccc3nc(C(C)C)sc3c2C(F)(F)F)nc1"
  reportedEndpoint: "Ratio IC50"
  qual: "="
  reportedResult: 126
- substanceSmiles: "CC(=O)N[C@@H](C)/C=C/c1ccc(Oc2ccc(OCCF)cc2Cl)nc1"
  reportedEndpoint: "Ratio IC50"
  qual: ">"
  reportedResult: 537
- substanceSmiles: "CC(=O)N[C@@H](C)/C=C/c1ccc(Oc2ccc(OCC3CC3)cc2Cl)nc1"
  reportedEndpoint: "Ratio IC50"
  qual: "="
  reportedResult: 140
